I'd appreciate it if you could supply log10 EC50 values for the items below.
target: T1, aggregated A-beta(1-40) peptide (BAA) (human); assay: BAA ELISA
T1 construct: also called A-beta peptide aggregates
Values reflect log10 of reported EC50 (nM).

Below: 7 binders and their reported log10 EC50.
ABII42E10 (VHH) VHH: EVQLVESGGGLVQPGGSLRLSCAASGLTFTLYTMGWFRQAPGKEREFVAAISASGGTTYYADSVKGRFALSRDNAKNTVFLQMNTLKPEDTAEYLCAAAFRGFAINTPTSYNYWGQGTQVTVSS | 0.41
ABII42G10 (VHH) VHH: EVQLVESGGGLVQAGGSLRLSCLFSGRTFSTNGVGWFRQVPGKEREFVSAINWSGSKTNYAEPVKGRFTISRDNAKNTAYLQMNSLKPEDTAVYYCAAYRTSISRYEYAYWGQGTQVTVSS | 1.69
ABII60A10 = ABII050 (VHH) VHH: EVQLVESGGGLVQAGGSLRLSCAASGRTFNNYNMGWFRQAPGKEREFVAAVSRSGVSTYYADSVKGRFTISRDNAKNAVYLQMNSLKPEDTAIYYCGAAYRGTAINVRRSYDSWGQGTQVTVSS | -0.10
ABII35C7 (VHH) VHH: EVQLVESGGGLVQPGGSLRLSCAASGRTFSIYNMGWFRQAPGKEREFVAAISRSGSSTYYGDSVKGRFTISRDNAKKTVYLQMNSLKPEDTAVYHCAAARFGTPINTRGSYDYWGQGTQVTVSS | 0.11
reference VHH 2G6 (VHH, from WO2006/40153) VHH: QVKLEESGGGLVQPGGSLRLSCAASGFTFSNYWMYWVRQAPGKGLEWVSTISPRAANTYYADSVKGRFTISRDNAKNTLYLQMNSLEPDDTALYYCAKSLRYRDRPQSSDFLFWRQGTQVTVSS | 0.86
ABII61F6 (VHH) VHH: EVQLVESGGGLVQTGGSLRLSCAASGSTVNINAMGWYRQAPGKQRELVAIINKRGVTNYADSTEGRFTISRDNSKRTLYLQMNSLKPEDTAVYYCNAVVGRYGRTYGYWGQGTQVTVSS | 1.16
ABII35D2 (VHH) VHH: EVQLVESGGGLVQAGGSLRLSCVASGLTFSSYNMGWFRQAPGKEREFVAAISRSGGSTYYTDSVKGRFTISRDSSKNTVYLQMNSLKPEDTADYYCAAALFGSAINLLSEYRYWGQGTQVTVSS | 1.11

Query binder follows.
Query :: Report measured log10 EC50; entry is ABII5D2 (VHH) VHH: EVQLVESGGGLVQAGGSLRLSCAASGRTFSSYAMGWVRQAPGKERELVATISQSGGLRSYADSVKGRFTISRDNAKNTVYLQMNSLTPGDTAVYYCAAQARATAWSPQRVDYWGQGTQVTVSS
Result :: 1.07
